Hey, just so you know, these numbers are from patent US10258603B2.

biological target: TAF1-BD2 (Homo sapiens); assay: TAF1-BD2 TR-FRET Binding Assay; conditions: Assay: TAF-1
Sequence (P21675 1525-1656): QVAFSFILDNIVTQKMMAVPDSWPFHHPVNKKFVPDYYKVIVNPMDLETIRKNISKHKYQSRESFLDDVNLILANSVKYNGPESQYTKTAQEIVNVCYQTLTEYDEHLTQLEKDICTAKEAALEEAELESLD
Assign labels as follows, please: 1 (yes) for IC50 below 4 µM; 0 (no) for IC50 equal to or exceeding 4 µM.

1. CC=CCn1cc(C(=O)NCCCNC(=O)OCc2ccccc2)c2cc[nH]c2c1=O [Example 17] = 1 (yes)
2. Cc1cnc(N2CCC(NC(=O)c3cn(C)c(=O)c4[nH]ccc34)CC2)nc1 [Example 149] = 1 (yes)
3. COCCN(C(=O)c1cn(C)c(=O)c2[nH]ccc12)C1CCN(C)CC1 [Example 84] = 0 (no)
4. CN(CC1CCN(CC2CCOC2)CC1)C(=O)c1cn(C)c(=O)c2[nH]ccc12 (stereo not shown) [Example 236] = 0 (no)
5. Cn1cc(C(=O)N2CCC(c3ccccc3)CC2)c2cc[nH]c2c1=O [Example 71] = 1 (yes)
6. Cn1cc(C(=O)N2CCC(F)CC2)c2cc[nH]c2c1=O [Example 53] = 0 (no)
7. Cn1cc(C(=O)NCC2CCCOC2)c2cc[nH]c2c1=O (stereo not shown) [Example 100] = 1 (yes)
8. CC=CCn1cc(C(=O)NCCN2CCN(Cc3ccccc3)CC2)c2cc[nH]c2c1=O [Example 16] = 0 (no)
9. Cn1cc(C(=O)NCC2CN(C(=O)OC(C)(C)C)C2)c2cc[nH]c2c1=O [Example 130] = 1 (yes)
10. Cn1cc(C(=O)NC2CCN(c3cccnn3)CC2)c2cc[nH]c2c1=O [Example 155] = 1 (yes)

====

target: CECR2 (Homo sapiens); construct: 424-538 was cloned, expressed, and purified to homogeneity; Flag; made in house; assay: CECR2 TR-FRET Binding Assay; conditions: read-out: IC50
Sequence (Q9BXF3 424-538 limits assumed): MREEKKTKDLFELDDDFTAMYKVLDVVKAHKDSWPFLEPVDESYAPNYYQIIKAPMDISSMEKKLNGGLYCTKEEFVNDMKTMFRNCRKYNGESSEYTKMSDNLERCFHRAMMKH
Listing of entries alongside the reported IC50.
value kind: IC50 (nM)

1) CC1CCN(CCNC(=O)c2cn(C)c(=O)c3[nH]ccc23)CC1 [Example 26] = 3200
2) CC(C)N1CCC(CCN(C)C(=O)c2cn(C)c(=O)c3[nH]ccc23)CC1 [Example 183] = 490
3) CC(C)N1CCC(C)(CNC(=O)c2cn(C)c(=O)c3[nH]ccc23)CC1 [Example 212] = 1700
4) C=CCn1cc(C(=O)N(C)C2CCN(c3cc(C)nc(C4CC4)n3)CC2)c2cc[nH]c2c1=O [Example 168] = 42
5) C=CCn1cc(C(=O)N(C)C2CCC(C)(C)c3ccccc32)c2cc(C)[nH]c2c1=O (single isomer, unassigned) [Example 279] = 12
6) COCCCN1CCC(CN(C)C(=O)c2cn(C)c(=O)c3[nH]ccc23)CC1 [Example 232] = 1200
7) CN(C(=O)c1cn(C)c(=O)c2[nH]ccc12)C1CCN(CC2CC2)CC1 [Example 208] = 1200
8) C=CCn1cc(C(=O)N2CCN(c3ccc(F)cc3)CC2C(N)=O)c2cc(C)[nH]c2c1=O (single isomer, unassigned) [Example 274] = 74
9) Cn1cc(C(=O)N2CCC(N3CCCC3)CC2)c2cc[nH]c2c1=O [Example 77] = 2700
10) C=CCn1cc(C(=O)N(C)C2CCN(c3cc(-c4ccccc4Cl)ncn3)CC2)c2cc(C)[nH]c2c1=O [Example 270] = 18
11) CN(C(=O)c1cn(C)c(=O)c2[nH]ccc12)C1CCN(Cc2ccccc2F)CC1 [Example 216] = 1200
12) COCCN1CCC(CCN(C)C(=O)c2cn(C)c(=O)c3[nH]ccc23)CC1 [Example 185] = 910
13) CC(C)N1CCCC(NC(=O)c2cn(C)c(=O)c3[nH]ccc23)CC1 (centres unmarked) [Example 241] = 1100
14) CN(CC1CCN(CCC2CCCCC2)CC1)C(=O)c1cn(C)c(=O)c2[nH]ccc12 [Example 229] = 640
15) C=CCn1cc(C(=O)N(C)C2CCN(c3cc(C)nc(C4CC4)n3)CC2)c2cc(C)[nH]c2c1=O [Example 267] = 17
16) C=CCn1cc(C(=O)N(C)C2CCN(c3cc(-c4cccnc4C)ncn3)CC2)c2cc(C)[nH]c2c1=O [Example 268] = 23
17) CC(C)N1C2CCC1CC(N(C)C(=O)c1cn(C)c(=O)c3[nH]ccc13)C2 (centres unmarked) [Example 242] = 1400

====

Listing of entries alongside the reported pIC50.
molecular target: BRD4(BD1) (Homo sapiens); construct: 42-168 was cloned, expressed, and purified to; His; assay: BRD4 AlphaLisa Binding Assay
pIC50: −log10 of the molar value.
value kind: pIC50

1) CC(NC(=O)c1cn(C)c(=O)c2[nH]ccc12)c1ccc(Cl)cc1 (stereo not shown) = 5.49
2) COc1ccccc1C(C)NC(=O)c1cn(C)c(=O)c2[nH]ccc12 (stereo not shown) = 5.92
3) CN1CCN(CCNC(=O)c2cn(C)c(=O)c3[nH]ccc23)CC1 = 5.01
4) Cn1cc(C(=O)NCCN2CCOCC2)c2cc[nH]c2c1=O = 5.31
5) Cn1cc(C(=O)N[C@H](C(=O)O)c2ccccc2)c2cc[nH]c2c1=O = 5.30
6) Cn1cc(C(=O)N2CCC(n3cnc4ccccc43)CC2)c2cc[nH]c2c1=O = 4.80
7) CC(C)C(NC(=O)c1cn(C)c(=O)c2[nH]ccc12)c1ccccc1 (stereo not shown) = 4.96
8) C[C@@H](NC(=O)c1cn(C)c(=O)c2[nH]ccc12)C1CCCCC1 = 5.51
9) COC(=O)[C@@H](NC(=O)c1cn(C)c(=O)c2[nH]ccc12)C1CCCCC1 = 5.54
10) Cn1cc(C(=O)NCCc2ccccc2)c2cc[nH]c2c1=O = 6.10
11) CCOC(C)CNC(=O)c1cn(C)c(=O)c2[nH]ccc12 (stereo not shown) = 5.40
12) COC[C@@H](NC(=O)c1cn(C)c(=O)c2[nH]ccc12)c1ccccc1 = 4.96
13) Cn1cc(C(=O)NCCCN2CCOCC2)c2cc[nH]c2c1=O = 4.77
14) Cn1cc(C(=O)NCc2cccs2)c2cc[nH]c2c1=O = 5.48
15) Cc1ccccc1CCNC(=O)c1cn(C)c(=O)c2[nH]ccc12 = 5.92
16) Cn1cc(C(=O)N2CCC(C(F)(F)F)CC2)c2cc[nH]c2c1=O = 5.39
17) Cn1cc(C(=O)NCC2CCCCN2C(=O)OC(C)(C)C)c2cc[nH]c2c1=O (stereo not shown) = 4.89
18) Cn1cc(C(=O)NCc2ccc(S(C)(=O)=O)cc2)c2cc[nH]c2c1=O = 5.08
19) Cn1cc(C(=O)N2CCC(c3ccccn3)CC2)c2cc[nH]c2c1=O = 5.02

====

molecular target: BRD9 (Homo sapiens)
Sequence (Q9H8M2 134-239 limits assumed): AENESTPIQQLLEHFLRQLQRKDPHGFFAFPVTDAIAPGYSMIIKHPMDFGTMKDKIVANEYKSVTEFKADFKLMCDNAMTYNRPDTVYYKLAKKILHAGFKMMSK
pIC50: −log10 of the molar value.
Label scheme for pIC50: lower than 6 is NO, 6 and above is YES.

1) CC=CCn1cc(C(=O)NC2(C)CCCCC2)c2cc[nH]c2c1=O = NO
2) CC(NC(=O)c1cn(C)c(=O)c2[nH]ccc12)c1ccccc1Cl (centres unmarked) = YES
3) CC(C)[C@H](NC(=O)c1cn(C)c(=O)c2[nH]ccc12)C(N)=O = YES
4) Cn1cc(C(=O)NC2COCC2c2ccc(F)cc2)c2cc[nH]c2c1=O (centres unmarked) = NO
5) C=CCn1cc(C(=O)N(C)C2CCN(c3ccncn3)CC2)c2cc[nH]c2c1=O = NO
6) Cn1cc(C(=O)NC2CCN(C(=O)OC(C)(C)C)C2)c2cc[nH]c2c1=O (centres unmarked) = YES
7) CC(NC(=O)c1cn(C)c(=O)c2[nH]ccc12)c1ccc2c(c1)OCCO2 (centres unmarked) = YES
8) Cn1cc(C(=O)NCc2ccc(F)cc2)c2cc[nH]c2c1=O = YES
9) Cn1cc(C(=O)NCC2CCCN2C(=O)OC(C)(C)C)c2cc[nH]c2c1=O (centres unmarked) = YES
10) CC(NC(=O)c1cn(C)c(=O)c2[nH]ccc12)C1CC1 (centres unmarked) = YES
11) CN1CCN(CCCNC(=O)c2cn(C)c(=O)c3[nH]ccc23)CC1 = NO
12) Cn1cc(C(=O)NC(C)(C)c2ccccc2)c2cc[nH]c2c1=O = NO

====

biological target: CECR2 (Homo sapiens); construct: 424-538 was cloned, expressed, and purified to homogeneity; Flag; made in house; assay: CECR2 TR-FRET Binding Assay; conditions: read-out: IC50
Listing of entries alongside the reported IC50.
value kind: IC50 (nM)

1. C=CCn1cc(C(=O)N(C)C2CCN(c3cc(C(C)C)ncn3)CC2)c2cc[nH]c2c1=O [Example 167] = 120
2. C=CCn1cc(C(=O)N(C)C2CCN(c3ccnc(C#N)n3)CC2)c2cc[nH]c2c1=O [Example 160] = 180
3. CN(C(=O)c1cn(C)c(=O)c2[nH]ccc12)C1CCN(c2ccc(C(F)(F)F)cc2)CC1 [Example 175] = 760
4. CN(C(=O)c1cn(C)c(=O)c2[nH]ccc12)C1CCN(c2ncc(F)cn2)CC1 [Example 147] = 510
5. CN(C(=O)c1cn(C)c(=O)c2[nH]ccc12)C1CCN(CCc2ccccc2F)CC1 [Example 253] = 980
6. CC1CCCCN1CCCNC(=O)c1cn(C)c(=O)c2[nH]ccc12 (stereo not drawn) [Example 29] = 1800
7. CN(CC1CCN(c2ccncn2)CC1)C(=O)c1cn(C)c(=O)c2[nH]ccc12 [Example 158] = 790
8. C=CCn1cc(C(=O)N(C)C2CCCc3cnccc32)c2cc(C)[nH]c2c1=O (stereo not drawn) [Example 283] = 44
9. C=CCn1cc(C(=O)N(C)C2CCCc3c(OC)cccc32)c2cc(C)[nH]c2c1=O (single isomer, unassigned) [Example 288] = 41
10. Cn1cc(C(=O)NCCN2CCC(O)CC2)c2cc[nH]c2c1=O [Example 30] = 3800
11. CCN1CCC(CN(C)C(=O)c2cn(C)c(=O)c3[nH]ccc23)CC1 [Example 191] = 590
12. CN(CC1CCN(Cc2cccc(F)c2)CC1)C(=O)c1cn(C)c(=O)c2[nH]ccc12 [Example 202] = 1300
